Recorded values, source PubChem BioAssay (NCI).

Overview of reported TGI across a group of compounds:
System: SF-268 CNS
Method Summary: NCI tumour cell line growth inhibition, 48 h
Where a SMILES comes first, the peptide text is derived from it. [ ]: non-standard residue; d: D form. The star is where a group is joined. Bn2Val = CC(C)[C@@H](C(=O)*)N(Cc1ccccc1)Cc1ccccc1; NMeV = CN[C@H](C(=O)O)C(C)C; X29 = COc1ccc(CN*)c(OC)c1; dNMeA = CN[C@H](C)C(=O)O

These recorded examples may help you get a feel for the data.
NC(=O)c1cc(N(CCO)CCO)c([N+](=O)[O-])cc1[N+](=O)[O-]
> 100 µM
COC(=O)C(=O)C(C(=O)C(=O)Nc1cccc([N+](=O)[O-])c1)c1nc2ccc(Cl)cc2[nH]c1=O (stereo not drawn)
> 100 µM
O=C(/C=C/c1ccc(C(F)(F)F)cc1)Nc1ccc(C=C2c3ccccc3C(=O)c3ccccc32)cc1
> 100 µM
Cc1ccnc2nc(N)ccc12
> 100 µM
O=C(O)/C=C\C(=O)Nc1ccccn1
> 100 µM

I would be grateful if you could share the reported TGI for COc1cccc(CN(C)c2ccc(CO)c(Cl)c2)c1 .
> 100 µM

Param item: Nc1ccc(Nc2cc(=O)[nH]c(=O)[nH]2)cc1
> 100 µM

Param item: COc1ccc(OC(C(=O)O)C(C)C)c2c1CCCC2=O (stereo not drawn)
> 100 µM

Param item: COC(=O)c1c(CC(Cc2ccc3c(c2)CCCC3)C(=O)OC)ccc2c1CCCC2 (stereo not drawn)
> 100 µM

Param item: COc1ccc(CNC(=O)[C@@H]2CCCN2C(=O)[C@@H](C)N(C)C(=O)[C@H](C(C)C)N(C)C(=O)[C@@H](NC(=O)[C@H](C(C)C)N(Cc2ccccc2)Cc2ccccc2)C(C)C)c(OC)c1 (Bn2Val-V[NMeV][dNMeA]P-X29)
> 100 µM

Param item: Cc1ccc(-n2cc(-c3ccc(Cl)cc3)c3c(NN)ncnc32)cc1
17.8 µM

Param item: Cc1cccc2c1c1ccc3c(c1n2C)C(=O)C=CC3=O
36.5 µM

Param item: CC1CN(S(=O)(=O)c2oc(-c3ccc(Cl)cc3)nc2C#N)CC(C)O1 (stereo not drawn)
4.14 µM
